The reported measurements were obtained from patent US9512128B2.

# assay-details: log P by HPLC on reversed-phase columns (C 18), EEC directive 79/831 Annex V.A8
# Assay type: physicochemical
# experimental-conditions: method [b]
Below, each entry is listed alongside its reported logP[b].
Answer using only a numeral; do not append any unit.

Cc1nc2c(=O)n(-c3cc(SCC(F)(F)F)c(Cl)cc3Cl)cnc2s1
3.02
Cc1cc(C)c(-n2cnc3c(cnn3C)c2=O)cc1SCC(F)(F)F
2.73
Cc1cc(C)c(-n2c(C)nc3c(cnn3C)c2=O)cc1SCC(F)(F)F
2.86
Cc1nc2c(=O)n(-c3cc([S+]([O-])CC(F)(F)F)c(Cl)cc3Cl)cnc2s1 (centres unmarked)
2.17
CC(C)(C)c1snc2ncn(-c3ccc(Cl)c([S+]([O-])CC(F)(F)F)c3)c(=O)c12 (centres unmarked)
3.08

Report logP[b] for N#Cc1ccc(-n2cnc3ccsc3c2=O)cc1[S+]([O-])CC(F)(F)F (centres unmarked) please.
1.75

Report logP[b] for O=c1c2sccc2ncn1-c1ccc(C(F)(F)F)c([S+]([O-])CC(F)(F)F)c1 (centres unmarked) please.
2.40

Report logP[b] for Cc1cc(C)c([S+]([O-])CC(F)(F)F)cc1-n1cnc2ncsc2c1=O (centres unmarked) please.
1.62

Report logP[b] for Cc1cc(F)c(-n2c(C(F)(F)F)nc3nn(C)cc3c2=O)cc1SCC(F)(F)F please.
3.19

Report logP[b] for Cc1nn(C)c2ncn(-c3ccc(C(F)(F)F)c([S+]([O-])CC(F)(F)F)c3)c(=O)c12 (racemic) please.
2.34

Report logP[b] for N#Cc1ccc(-n2cnc3sccc3c2=O)cc1SCC(F)(F)F please.
2.46

Report logP[b] for Cn1ncc2c(=O)n(-c3ccc(C#N)c([S+]([O-])CC(F)(F)F)c3)cnc21 (racemic) please.
1.56

Report logP[b] for Cc1ccc(-n2cnc3nn(C)c(C)c3c2=O)cc1SCC(F)(F)F please.
2.33

Report logP[b] for Cc1cc(F)c(-n2cnc3ccsc3c2=O)cc1SCC(F)(F)F [Compound 108] please.
2.90

Report logP[b] for Cc1cc(F)c(-n2c(C(F)(F)F)nc3scnc3c2=O)cc1SCC(F)(F)F please.
3.51

Report logP[b] for Cc1nn(C)c2ncn(-c3ccc(C#N)c([S+]([O-])CC(F)(F)F)c3)c(=O)c12 (centres unmarked) please.
1.70

Report logP[b] for Cn1ncc2c(=O)n(-c3ccc(C(F)(F)F)c([S+]([O-])CC(F)(F)F)c3)cnc21 (racemic) please.
2.11
